Origin of the recorded values: patent US6048854A

- Test system: platelet aggregation
- measurement_notes: Platelet aggregation inhibitory activity (ex vivo) after oral administration
- Assay type: in vivo
- setup_conditions: Cavia porcellus, guinea pig, oral 0.1 mg/kg, 4 hrs, ADP 10 μg/ml, read-out: platelet aggregation inhibitory rate (%), 4 hrs
Measured inhibition in vivo at 0.1 mg/kg, listed per entry.
quantity_measured: inhibition in vivo at 0.1 mg/kg (%)

structure_smiles_string	recorded_value
N=C(N)c1ccc(CCCCCC(=O)NC[C@H](NS(=O)(=O)c2ccccc2)C(=O)O)cc1	14
N=C(N)c1ccc(C(=O)NCCC(=O)NC[C@H](NS(=O)(=O)c2ccc(F)cc2)C(=O)O)cc1	100
N=C(N)c1ccc(OCCCC(=O)NC[C@H](NS(=O)(=O)c2ccccc2C(F)(F)F)C(=O)O)cc1	52
CCc1ccc(S(=O)(=O)N[C@@H](CNC(=O)CCNC(=O)c2ccc(C(=N)N)cc2)C(=O)O)cc1	79

* * *

- system: human fibrinogen (Homo sapiens, UniProt P05106+P08514)
- Construct: centrifuged at 11000 rpm for two minutes to give human platelet
- Sequence (P08514 32-887 limits assumed): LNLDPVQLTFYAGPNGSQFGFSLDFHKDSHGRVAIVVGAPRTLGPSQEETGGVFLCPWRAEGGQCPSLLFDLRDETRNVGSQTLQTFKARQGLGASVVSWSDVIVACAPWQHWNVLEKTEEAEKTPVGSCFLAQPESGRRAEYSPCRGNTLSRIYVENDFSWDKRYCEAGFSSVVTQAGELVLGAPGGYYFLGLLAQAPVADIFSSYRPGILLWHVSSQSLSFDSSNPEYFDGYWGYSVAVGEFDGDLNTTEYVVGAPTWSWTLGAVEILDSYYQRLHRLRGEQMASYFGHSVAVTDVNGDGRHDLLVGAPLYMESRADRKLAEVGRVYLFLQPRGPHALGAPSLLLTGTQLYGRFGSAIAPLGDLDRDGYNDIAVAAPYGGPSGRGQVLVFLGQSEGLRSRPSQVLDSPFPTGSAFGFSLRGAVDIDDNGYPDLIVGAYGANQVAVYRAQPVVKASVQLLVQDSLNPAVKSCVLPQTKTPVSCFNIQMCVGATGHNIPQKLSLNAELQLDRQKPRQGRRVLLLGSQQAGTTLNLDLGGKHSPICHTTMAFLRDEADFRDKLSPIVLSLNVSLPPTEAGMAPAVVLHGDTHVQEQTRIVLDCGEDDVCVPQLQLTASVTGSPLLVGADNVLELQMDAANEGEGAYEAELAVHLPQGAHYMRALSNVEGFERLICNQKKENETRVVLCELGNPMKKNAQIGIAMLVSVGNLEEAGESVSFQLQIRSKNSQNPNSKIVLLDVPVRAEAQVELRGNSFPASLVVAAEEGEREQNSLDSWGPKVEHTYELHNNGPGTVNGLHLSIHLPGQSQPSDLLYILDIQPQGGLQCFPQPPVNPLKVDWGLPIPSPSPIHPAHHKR
- Sequence (P08514 891-1039 limits assumed): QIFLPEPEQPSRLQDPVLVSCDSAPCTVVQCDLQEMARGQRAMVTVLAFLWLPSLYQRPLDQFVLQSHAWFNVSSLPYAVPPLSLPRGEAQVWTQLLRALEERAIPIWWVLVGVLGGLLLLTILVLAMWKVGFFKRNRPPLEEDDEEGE
- Sequence (P05106 27-788): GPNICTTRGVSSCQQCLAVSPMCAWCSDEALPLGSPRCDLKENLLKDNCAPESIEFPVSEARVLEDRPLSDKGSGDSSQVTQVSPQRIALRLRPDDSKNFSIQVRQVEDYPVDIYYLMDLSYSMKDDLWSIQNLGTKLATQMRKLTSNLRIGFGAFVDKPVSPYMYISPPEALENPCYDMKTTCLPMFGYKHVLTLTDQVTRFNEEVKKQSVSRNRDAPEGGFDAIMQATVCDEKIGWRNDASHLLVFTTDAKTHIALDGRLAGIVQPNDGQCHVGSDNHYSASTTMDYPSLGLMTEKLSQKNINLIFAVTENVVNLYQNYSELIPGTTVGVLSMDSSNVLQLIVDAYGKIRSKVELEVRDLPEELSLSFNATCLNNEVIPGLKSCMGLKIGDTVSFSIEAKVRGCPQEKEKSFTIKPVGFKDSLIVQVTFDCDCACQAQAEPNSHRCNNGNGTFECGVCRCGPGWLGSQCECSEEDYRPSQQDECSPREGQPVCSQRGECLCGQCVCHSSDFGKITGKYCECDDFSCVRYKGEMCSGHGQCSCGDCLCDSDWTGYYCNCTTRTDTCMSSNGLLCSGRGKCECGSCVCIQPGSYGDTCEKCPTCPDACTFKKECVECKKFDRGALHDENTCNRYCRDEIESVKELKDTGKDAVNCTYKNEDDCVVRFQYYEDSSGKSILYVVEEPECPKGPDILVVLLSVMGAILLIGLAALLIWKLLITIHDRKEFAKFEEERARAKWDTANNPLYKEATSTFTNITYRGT
- measurement_notes: Binding assay of platelet to adhesive protein: fibrinogen (receptor binding inhibition)
- setup_conditions: Table 4; fixed activated human platelets, 37° C., 60 minutes
pIC50: −log10 of the molar value.
The following compounds are shown together with reported pIC50 values.
quantity_measured: pIC50

compound	quantity_measured	recorded_value
CCc1ccc(S(=O)(=O)N[C@@H](CNC(=O)CCNC(=O)c2ccc(C(=N)N)cc2)C(=O)O)cc1 [Example 80]	pIC50	8.00
N=C(N)c1ccc(N2CCC(CC(=O)NC[C@H](NS(=O)(=O)c3ccccc3)C(=O)O)CC2)cc1 [Example 69]	pIC50	8.01
Cc1cc(C)c(S(=O)(=O)N[C@@H](CNC(=O)CCCOc2ccc(C(=N)N)cc2)C(=O)O)c(C)c1 [Example 60]	pIC50	8.82
COc1ccc(S(=O)(=O)N[C@@H](CNC(=O)CC2CCN(c3ccc(C(=N)N)cc3)CC2)C(=O)O)cc1 [Example 93]	pIC50	7.82
N=C(N)c1ccc(OCCCC(=O)NC[C@H](NS(=O)(=O)c2ccc(F)cc2)C(=O)O)cc1 [Example 61]	pIC50	9.00
N=C(N)c1ccc(C(=O)NCCC(=O)NC[C@H](NS(=O)(=O)c2cccc3ccccc23)C(=O)O)cc1 [Example 20]	pIC50	8.14
N=C(N)c1ccc(OCCCC(=O)NC[C@H](NS(=O)(=O)c2ccccc2)C(=O)O)cc1 [Example 58]	pIC50	7.62
Cc1cccc(S(=O)(=O)N[C@@H](CNC(=O)CCNC(=O)c2ccc(C(=N)N)cc2)C(=O)O)c1 [Example 75]	pIC50	8.09
O=C(CCC1CCNCC1)NCCC(=O)NC[C@H](NS(=O)(=O)c1ccccc1)C(=O)O [Example 2]	pIC50	7.92
N=C(N)c1ccc(OCCCCC(=O)NC[C@H](NS(=O)(=O)c2ccccc2)C(=O)O)cc1 [Example 64]	pIC50	7.62
Cc1cc(C)c(S(=O)(=O)N[C@@H](CNC(=O)CCCCCc2ccc(C(=N)N)cc2)C(=O)O)c(C)c1 [Example 92]	pIC50	8.41
N=C(N)c1ccc(C(=O)NCCC(=O)NC[C@H](NS(=O)(=O)c2ccccc2)C(=O)O)cc1 [Example 1]	pIC50	8.34
Cc1cc(C)c(S(=O)(=O)N[C@@H](CNC(=O)CCCCOc2ccc(C(=N)N)cc2)C(=O)O)c(C)c1 [Example 86]	pIC50	8.96
N=C(N)c1ccc(OCCCC(=O)NC[C@H](NS(=O)(=O)c2ccccc2C(F)(F)F)C(=O)O)cc1 [Example 82]	pIC50	8.92
N=C(N)c1ccc(C(=O)NCCC(=O)NC[C@H](NS(=O)(=O)c2ccccc2C(F)(F)F)C(=O)O)cc1 [Example 21]	pIC50	8.66

* * *

// reported pIC50 per item
- system: human fibrinogen (Homo sapiens, UniProt P05106+P08514)
- Construct: centrifuged at 11000 rpm for two minutes to give human platelet
- measurement_notes: Binding assay of platelet to adhesive protein: fibrinogen (receptor binding inhibition)
- setup_conditions: Table 4; fixed activated human platelets, 37° C., 60 minutes
pIC50: −log10 of the molar value.
quantity_measured: pIC50

structure_smiles_string	system	quantity_measured	recorded_value
CCc1ccc(S(=O)(=O)N[C@@H](CNC(=O)CCCOc2ccc(C(=N)N)cc2)C(=O)O)cc1	human fibrinogen (Homo sapiens, UniProt P05106+P08514)	pIC50	7.66
Cc1cc(C)c(S(=O)(=O)N[C@@H](CNC(=O)CCNC(=O)c2ccc(C(=N)N)cc2)C(=O)O)c(C)c1	human fibrinogen (Homo sapiens, UniProt P05106+P08514)	pIC50	8.30
N=C(N)c1ccc(C(=O)NCCC(=O)NC[C@H](NS(=O)(=O)c2ccc(F)cc2)C(=O)O)cc1	human fibrinogen (Homo sapiens, UniProt P05106+P08514)	pIC50	8.05
N=C(N)c1ccc(CCCCCC(=O)NC[C@H](NS(=O)(=O)c2ccccc2)C(=O)O)cc1	human fibrinogen (Homo sapiens, UniProt P05106+P08514)	pIC50	8.33
N=C(N)c1ccc(OCCCC(=O)NC[C@H](NS(=O)(=O)c2ccccc2[N+](=O)[O-])C(=O)O)cc1	human fibrinogen (Homo sapiens, UniProt P05106+P08514)	pIC50	7.92
Cc1ccc(S(=O)(=O)N[C@@H](CNC(=O)CCNC(=O)c2ccc(C(=N)N)cc2)C(=O)O)cc1	human fibrinogen (Homo sapiens, UniProt P05106+P08514)	pIC50	8.20
N=C(N)c1ccc(OCCCCC(=O)NC[C@H](NS(=O)(=O)c2ccccc2[N+](=O)[O-])C(=O)O)cc1	human fibrinogen (Homo sapiens, UniProt P05106+P08514)	pIC50	8.32

* * *

- system: human fibrinogen (Homo sapiens, UniProt P05106+P08514)
- Construct: centrifuged at 11000 rpm for two minutes to give human platelet
- measurement_notes: Binding assay of platelet to adhesive protein: fibrinogen (receptor binding inhibition)
- setup_conditions: Table 4; fixed activated human platelets, 37° C., 60 minutes
Recorded IC50, one value per entry.
quantity_measured: IC50 (nM)

compound	recorded_value
N=C(N)c1ccc(C(=O)N2CCCC(C(=O)NC[C@H](NS(=O)(=O)c3ccccc3)C(=O)O)C2)cc1 (stereo partly shown) [Example 95]	8.4
Cc1cc(C)c(S(=O)(=O)N[C@@H](CNC(=O)CCCCc2ccc(C(=N)N)cc2)C(=O)O)c(C)c1 [Example 87]	12
N=C(N)c1ccc(OCCCC(=O)NC[C@H](NS(=O)(=O)c2cccc3ccccc23)C(=O)O)cc1 [Example 62]	1.1
COc1ccc(S(=O)(=O)N[C@@H](CNC(=O)CCCCOc2ccc(C(=N)N)cc2)C(=O)O)cc1 [Example 63]	2.2

* * *

- Test system: platelet aggregation
- measurement_notes: Platelet aggregation inhibitory activity (ex vivo) after oral administration
- Format: in vivo
- setup_conditions: Cavia porcellus, guinea pig, oral 0.1 mg/kg, 6 hrs, ADP 10 μg/ml, read-out: platelet aggregation inhibitory rate (%), 6 hrs

structure_smiles_string	inhibition in vivo at 0.1 mg/kg, %
CCNC(=N)c1ccc(C(=O)NCCC(=O)NC[C@H](NS(=O)(=O)c2ccccc2)C(=O)O)cc1	100
N=C(N)c1ccc(CCCCCC(=O)NC[C@H](NS(=O)(=O)c2ccccc2)C(=O)O)cc1	39
Cc1cc(C)c(S(=O)(=O)N[C@@H](CNC(=O)CCCCCc2ccc(C(=N)N)cc2)C(=O)O)c(C)c1	0
CNC(=N)c1ccc(C(=O)NCCC(=O)NC[C@H](NS(=O)(=O)c2ccccc2)C(=O)O)cc1	100
Cc1cc(C)c(S(=O)(=O)N[C@@H](CNC(=O)CCNC(=O)c2ccc(C(=N)N)cc2)C(=O)O)c(C)c1	91
CCc1ccc(S(=O)(=O)N[C@@H](CNC(=O)CCCOc2ccc(C(=N)N)cc2)C(=O)O)cc1	41
CN(C)C(=N)c1ccc(C(=O)NCCC(=O)NC[C@H](NS(=O)(=O)c2ccccc2)C(=O)O)cc1	100
N=C(N)c1ccc(CCCCC(=O)NC[C@H](NS(=O)(=O)c2ccccc2)C(=O)O)cc1	10
COc1ccc(S(=O)(=O)N[C@@H](CNC(=O)CCNC(=O)c2ccc(C(=N)N)cc2)C(=O)O)cc1	66
N=C(N)c1ccc(OCCCC(=O)NC[C@H](NS(=O)(=O)c2ccc(F)cc2)C(=O)O)cc1	0
Cc1ccccc1S(=O)(=O)N[C@@H](CNC(=O)CCNC(=O)c1ccc(C(=N)N)cc1)C(=O)O	100
N=C(N)c1ccc(C(=O)NCCC(=O)NC[C@H](NS(=O)(=O)c2ccccc2)C(=O)O)cc1	100
N=C(N)c1ccc(OCCCC(=O)NC[C@H](NS(=O)(=O)c2cccc3ccccc23)C(=O)O)cc1	50
CCc1ccc(S(=O)(=O)N[C@@H](CNC(=O)CCNC(=O)c2ccc(C(=N)N)cc2)C(=O)O)cc1	74
N=C(N)c1ccc(C(=O)NCCC(=O)NC[C@H](NS(=O)(=O)c2ccccc2[N+](=O)[O-])C(=O)O)cc1	97
